System: UO-31
Assay: NCI tumour cell line growth inhibition, 48 h
Activity calls are given as the source filed them. Cut-off read from the data, not from the text of the source: active = GI50 up to about 1.1 µM and inactive = higher.
Entries annotated with measured GI50

Example compounds with recorded GI50:
{"Compound": "OC(C1CCCCCCCCCC1)C(O)C1CCCCCCCCCC1 (stereo unspecified)", "System": "UO-31", "Observed Measurement": "> 100 µM (inactive)"}
{"Compound": "O=C(/C(=C\\c1ccccc1)CN1CCOCC1)c1ccc(Br)cc1", "System": "UO-31", "Observed Measurement": "1.8 µM (inactive)"}
{"Compound": "CC(C)C1SCc2nc3ccccc3n21 (stereo unspecified)", "System": "UO-31", "Observed Measurement": "44.8 µM (inactive)"}

Exercise: Form field: reported GI50 of `NC(=S)N/N=C(\C(=O)Nc1cccc([N+](=O)[O-])c1)c1nc2ccc([N+](=O)[O-])cc2nc1O`
Key: > 100 µM (inactive)

Exercise: Then this compound: CCC1(c2ccccc2)C(=O)N=C(c2ccccc2)N1CCc1ccccc1 (stereo unspecified)
Key: > 100 µM (inactive)

The reported numbers originate from ChEMBL document CHEMBL1201862.
